MEASURED TARGET: Human immunodeficiency virus type 1 reverse transcriptase (Human immunodeficiency virus 1)
MEASUREMENT CONTEXT: read-out: IC50 (converted)
Counter-ions that a name gives are not always drawn.
Items are presented alongside their recorded IC50.
PROPERTY LABEL: IC50

- C[n+]1cccc(C(=O)[O-])c1 [TRIGONELLINE HYDROCHLORIDE]: > 1150 µM
- CC[C@@H]1CN2CCc3c([nH]c4ccccc34)[C@@H]2C[C@@H]1/C(=C\OC)C(=O)OC: > 543 µM
- COc1ccc2c(c1OC)CN1CCc3cc4c(cc3C1C2)OCO4 (centres undefined) [TETRAHYDROBERBERINE]: > 589 µM
- COC(=O)C1=CO[C@H](C)[C@@H]2CN3CCc4c([nH]c5cc(OC)ccc45)[C@@H]3C[C@H]12: > 523 µM
- CC[C@H]1CN2CCc3cc(OC)c(OC)cc3[C@@H]2C[C@@H]1C[C@H]1NCCc2cc(O)c(OC)cc21 [CEPHAELINE DIHYDROCHLORIDE]: > 371 µM
- COc1c([N+](=O)[O-])c2c(c3c1c(=O)c1ccccc1n3C)C=CC(C)(C)O2: > 546 µM
- COC(=O)C1=CO[C@@H](C)[C@@H]2CN3CCc4c([nH]c5ccccc45)[C@@H]3C[C@H]12 [TETRAHYDROALSTONINE]: > 567 µM
- C/C=C1\CN2[C@H]3C[C@@]45c6ccccc6N(C)[C@@H]4[C@@H]2C[C@@H]1[C@@]3(C(=O)OC)C5O (some centres undefined): > 546 µM
- COc1cc2c[n+](C)c3c4cc5c(cc4ccc3c2cc1OC)OCO5 [NITIDINE CHLORIDE]: < 130 µM
- CC[C@H]1[C@@H]2C[C@H]3[C@@H]4N(C)c5ccccc5[C@]45C[C@@H]([C@@H]2[C@H]5O)N3[C@@H]1O: > 613 µM
- COc1c(O)cc(O)c2c(=O)c(O)c(-c3ccccc3)oc12: > 734 µM
- C=C1C[C@@]23CC[C@H]4[C@@](C)(CCC[C@@]4(C)C(=O)O)[C@@H]2CC[C@]1(O)C3: > 628 µM
- COc1cc2c(OC)c3ccoc3nc2cc1O: > 816 µM
- CC(C)=CCC[C@](C)(O[C@@H]1O[C@H](CO[C@@H]2O[C@H](CO)[C@@H](O)[C@H](O)[C@H]2O)[C@@H](O)[C@H](O)[C@H]1O)[C@H]1CC[C@]2(C)[C@@H]1[C@H](O)C[C@@H]1[C@@]3(C)CC[C@H](O[C@@H]4O[C@H](CO)[C@@H](O)[C@H](O)[C@H]4O[C@@H]4O[C@H](CO)[C@@H](O)[C@H](O)[C@H]4O)C(C)(C)[C@@H]3CC[C@]12C [GINSENOSIDE RB1]: > 180 µM
